FYI, the data here is from patent US20250011363A1.

Exercise: for every item that follows, state its recorded Binding affinity.
SYSTEM: acetylcholine receptor (Homo sapiens)
Sequence (P02708 21-457): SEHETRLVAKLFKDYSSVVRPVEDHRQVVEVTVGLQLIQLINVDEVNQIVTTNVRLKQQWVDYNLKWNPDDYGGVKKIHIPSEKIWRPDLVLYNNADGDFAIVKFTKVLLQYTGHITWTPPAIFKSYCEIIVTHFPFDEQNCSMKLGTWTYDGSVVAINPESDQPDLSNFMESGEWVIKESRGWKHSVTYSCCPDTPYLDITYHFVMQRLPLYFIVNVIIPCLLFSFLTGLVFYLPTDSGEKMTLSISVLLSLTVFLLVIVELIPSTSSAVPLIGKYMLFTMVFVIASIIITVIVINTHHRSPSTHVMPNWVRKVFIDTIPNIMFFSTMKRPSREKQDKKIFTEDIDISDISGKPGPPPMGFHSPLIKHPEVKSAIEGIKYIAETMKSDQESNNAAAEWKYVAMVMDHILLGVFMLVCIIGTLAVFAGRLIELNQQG
ASSAY_PROTOCOL: SPR binding affinity (RU) of optimized 5mer/6mer/7mer peptides, Examples 6-7
CONDITION_DETAILS: 6mer-1 Top sequence; SPR; peptides tested at 10 μM
Numbers only here, please. The scale is Ru.

The reported value for 6mer-1-260 (RKQRTK) in terms of Binding affinity is 141

The reported value for 6mer-1-374 (KKQFQK) in terms of Binding affinity is 148

The reported value for 6mer-1-312 (KKSRQK) in terms of Binding affinity is 151

The reported value for 6mer-1-370 (RKQLYK) in terms of Binding affinity is 142

The reported value for 6mer-1-364 (RKRQSK) in terms of Binding affinity is 124

The reported value for 6mer-1-393 (KRLYYK) in terms of Binding affinity is 148

The reported value for 6mer-1-238 (KKGQQK) in terms of Binding affinity is 154

The reported value for 6mer-1-362 (KRVVYK) in terms of Binding affinity is 133
